These data points were gathered from the supplement of paper PMC10567573.

B1: SCARA5 (parent)
chain: VTEDLRLKDWEHSIALRNISLAKG

Variants of: B1
Assay: protein stability index of a GFP-peptide fusion (GPS, HEK-293T) (PSI 1-6); higher = more stable;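 also: lentivirally expressed fusions sorted by FACS into six bins by GFP to DsRed ratio, PSI derived from sequencing read proportions per bin multiplied by bin number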
Conditions: c terminus: a fixed tail appended
So I've got a bunch of variants here, and I need their protein stability index values.
Numbers only.

Look over these answered cases.
T2G | 3.26
T2R | 3.21
A15C | 3.13
I19L | 3.05
H12T | 3.51
L16R | 3.4
L5S | 3.89
N18L | 1.35

// input: 2 variants below; output: protein stability index for each
1. W10D
2. I19G

### Response
4.67
3.99
